Catalogue of binders with associated huEGFR^+ mcl-1^-/- MEF EC50
Biological target: human Epidermal Growth Factor Receptor (huEGFR) over-expressed in mcl-1-/- mouse embryonic fibroblasts (human, UniProt P00533 25-1210)
Assay: cell-based or functional assay
Please give a number only; it is taken to be in nM.

Some binders with known huEGFR^+ mcl-1^-/- MEF EC50 results, for comparison:
{"Binder": "AbK-AAA (antibody, V domains shown, synthon AAA on reduced interchain Cys) VH: EVQLQESGPGLVKPSQTLSLTCTVSGYSISRDFAWNWIRQPPGKGLEWMGYISYNGNTRYQPSLKSRITISRDTSKNQFFLKLNSVTAADTATYYCVTASRGFPWWGQGTLVTVSS VL: DIQMTQSPSSMSVSVGDRVTITCHSSQDITYNVGWLQQKPGKSFKGLIYHGSNLDHGVPSRFSGSGSGTDYTLTISSLQPEDFATYYCVQYDDFPWTFGGGTKLEIKR", "Result Units": "nM", "huEGFR^+ mcl-1^-/- MEF EC50": 3.4}
{"Binder": "AbG-XW (antibody, V domains shown, synthon XW on reduced interchain Cys) VH: EVQLQESGPGLVKPSQTLSLTCTVSGYSISNDFAWNWIRQLPGKGLEWMGYISYKGNTRYQPSLKSRITISRDTSKNQFFLKLNSVTAADTATYYCVTASRGLPYWGQGTLVTVSS VL: DIQMTQSPSSMSVSVGDRVTITCHSSQDITYNIGWLQQKPGKSFKGLIYHGANLDDGVPSRFSGSGSGTDYTLTISSLQPEDFATYYCVQYDEFPWTFGGGTKLEIKR", "Result Units": "nM", "huEGFR^+ mcl-1^-/- MEF EC50": 19}

Okay, next one:
QUERY: Which value of huEGFR^+ mcl-1^-/- MEF EC50 has been reported for AbK-WD (antibody, V domains shown, synthon WD on reduced interchain Cys) VH: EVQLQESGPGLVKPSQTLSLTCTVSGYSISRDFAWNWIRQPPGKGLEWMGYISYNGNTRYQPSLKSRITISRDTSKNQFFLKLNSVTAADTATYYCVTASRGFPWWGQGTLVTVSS VL: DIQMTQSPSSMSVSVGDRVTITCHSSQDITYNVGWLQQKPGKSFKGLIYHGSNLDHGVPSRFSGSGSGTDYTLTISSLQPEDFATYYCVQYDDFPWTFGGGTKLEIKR in the records?
RESULT: 35
